- tested_target: T1, IL-23 (HEK293E-derived) (human, UniProt P29460 23-328; Q9NPF7 20-189)
- T1 sequence 1: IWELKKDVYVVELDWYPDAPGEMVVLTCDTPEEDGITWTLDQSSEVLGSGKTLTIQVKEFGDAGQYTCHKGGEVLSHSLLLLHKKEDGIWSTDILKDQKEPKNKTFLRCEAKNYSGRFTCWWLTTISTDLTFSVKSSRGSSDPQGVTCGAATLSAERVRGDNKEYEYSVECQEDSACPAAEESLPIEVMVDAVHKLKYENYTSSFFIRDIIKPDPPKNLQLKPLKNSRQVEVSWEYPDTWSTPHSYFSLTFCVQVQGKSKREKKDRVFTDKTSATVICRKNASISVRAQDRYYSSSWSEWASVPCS
- T1 sequence 2: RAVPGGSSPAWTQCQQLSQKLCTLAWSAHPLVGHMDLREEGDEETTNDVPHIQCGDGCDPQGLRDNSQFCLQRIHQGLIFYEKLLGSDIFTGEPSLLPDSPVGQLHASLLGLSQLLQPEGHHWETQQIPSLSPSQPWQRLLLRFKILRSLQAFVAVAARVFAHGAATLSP
- assay_remarks: SPR (Biacore), antibody supernatant captured on Protein A, IL-23 at 5 ug/ml as analyte
Some binders, each annotated with its measured koff.
Unit s⁻¹ implied. Number only.

Solved cases (2 shown):
E11E7Chimera (antibody, human IgG1, kappa, V domains shown, Rat E11E7 variable regions on human constant regions; also called E11E7 chimeric antibody) VH: QVQLKESGPGLVQPSQTLSLTCTVSGFSLISYNVHWVRQPRGKGLEWMGVIWTGGSTDYNSVLKSRLSISRDTSKSQVFLKMHSLQTEDIGTYYCARDKYGLFPGYFDYWGQGVMVTVSS VL: DIVMTQSPFSLAVSEGEMVTINCKPSQSLLSSGNRKNYLAWYQQKPGQSPKLLIYYASTRQSGVPDRFIGSGSGTDFTLTISDVQAEDLADYYCLQHFNYPWTFGGGTKLELKR :: 5.98e-05
5-22 (antibody, human IgG1, kappa, V domains shown, Humanized form of E11E7; also called humanized antibody 5-22) VH: QVQLQESGPGLVKPSETLSLTCTVSGGSIISYNVHWIRQPPGKGLEWIGVIWTGGSTDYNPSLKSRVTISRDTSKNQFSLKLSSVTAADTAVYYCARDKYGLFPGYFDYWGQGTLVTVSS VL: DIVMTQSPDSLAVSLGERATINCKPSQSLLSSGNRKNYLAWYQQKPGQPPKLLIYYASTRQSGVPDRFSGSGSGTDFTLTISSLQAEDVAVYYCLQHFNYPWTFGQGTKLEIKR :: 0.00198

Query block: // Input: 10-23 (antibody, human IgG1, kappa, V domains shown, Humanized form of E11E7; also called humanized antibody 10-23) VH: QVQLQESGPGLVKPSETLSLTCTVSGGSISSYNVHWIRQPPGKGLEWIGVIWTGGSTDYNPSLKSRVTISVDTSKNQFSLKLSSVTAADTAVYYCARDKYGLFPGYFDYWGQGTLVTVSS VL: DIVMTQTPLSLPVTPGEPASISCKPSQSLLSSGNRKNYLAWYLQKPGQSPQLLIYYASTRQSGVPDRFSGSGSGTDFTLKISRVEAEDVGVYYCLQHFNYPWTFGQGTKLEIKR . Output its koff only.
Result block: 0.013
